assay: Metabolic stability expressed as half life values was monitored in vitro liver microsomal assay.; type: ADME, Microsome; details: liver microsomes
A collection of compounds and their measured half-life

INSERT INTO assay_data (mol_smiles, assay_metric, measured_result) VALUES
  ('Cc1cc(CCCOc2c(C)cc(-c3ccccc3)cc2C)on1', 'half-life', '> 200 min'),
  ('Cc1cccc(-c2cc(C)c(OCCCc3cc(C)no3)c(C)c2)c1', 'half-life', '> 200 min');

# input for lookup
IN: Look at this compound and give its reported half-life. `Cc1ccc(-c2cc(C)c(OCCCc3cc(C)no3)c(C)c2)cc1`
OUT: > 200 min

---

tested on: Human rhinovirus sp.; assay: Concentration inhibiting 50% of the serotypes tested to 50% of the viral concentration of untreated controls following 72 hr of exposure; format: functional
assay metric: MIC50 (µM)

Use the examples below as a reference point.
INSERT INTO measurements (mol_smiles, tested_target, assay_metric, measured_result) VALUES
  ('Cc1cc(CCCOc2c(C)cc(-c3cccc(F)c3)cc2C)on1', 'Human rhinovirus sp.', 'MIC50', 0.32),
  ('Cc1cc(CCCCCOc2c(Cl)cc(C3=NCCO3)cc2Cl)on1', 'Human rhinovirus sp.', 'MIC50', 0.78),
  ('COc1cccc(-c2cc(C)c(OCCCc3cc(C)no3)c(C)c2)c1', 'Human rhinovirus sp.', 'MIC50', 0.23),
  ('Cc1cc(CCCOc2c(C)cc(-c3ccc(C#N)cc3)cc2C)on1', 'Human rhinovirus sp.', 'MIC50', 0.26),
  ('Cc1cc(CCCOc2c(C)cc(-c3ccc(O)cc3)cc2C)on1', 'Human rhinovirus sp.', 'MIC50', 0.77);

(A) Cc1cc(CCCOc2c(C)cc(-c3ccc(F)c(F)c3)cc2C)on1
(B) COc1ccc(-c2cc(C)c(OCCCc3cc(C)no3)c(C)c2)cc1
(C) Cc1cc(CCCOc2c(C)cc(-c3ccc(F)cc3)cc2C)on1
(D) Cc1cc(CCCOc2c(C)cc(-c3ccc(C(F)(F)F)cc3)cc2C)on1
(E) Cc1cc(CCCOc2c(C)cc(-c3cccc(O)c3)cc2C)on1
IN: Arrange the 5 entries by MIC50 so the values rise. // list labels; follow requested order
OUT: C, A, B, E, D
(C: 0.11 µM, A: 0.16 µM, B: 0.28 µM, E: 0.44 µM, D: 1.7 µM)

(A) Cc1cc(CCCOc2c(C)cc(-c3ccc(Cl)cc3)cc2C)on1
(B) Cc1cc(CCCOc2c(C)cc(-c3cccc(Cl)c3)cc2C)on1
IN: Task for the reader: decide whether A or B has the larger MIC50. Answer = label.
OUT: B
(B: 0.27 µM, A: 0.12 µM)

(a) Cc1cc(CCCOc2c(C)cc(-c3ccccc3F)cc2C)on1
(b) Cc1cc(CCCOc2c(C)cc(-c3cccc([N+](=O)[O-])c3)cc2C)on1
IN: Decide: a or b , by lowest recorded MIC50. Answer = label.
OUT: a

---

system: Human rhinovirus sp.; experiment: Concentration inhibiting 50% of the serotypes tested to 50% of the viral concentration of untreated controls following 72 hr of exposure; format: functional
assay metric: MIC50 (µM)

Use the examples below as a reference point.
INSERT INTO assay_data (mol_smiles, tested_target, unit_info, measured_result) VALUES
  ('Cc1cc(CCCOc2c(C)cc(-c3ccccc3)cc2C)on1', 'Human rhinovirus sp.', 'µM', 0.16),
  ('Cc1cc(CCCOc2c(C)cc(-c3ccc(N(C)C)cc3)cc2C)on1', 'Human rhinovirus sp.', 'µM', 0.66),
  ('Cc1cccc(-c2cc(C)c(OCCCc3cc(C)no3)c(C)c2)c1', 'Human rhinovirus sp.', 'µM', 0.23),
  ('Cc1cc(CCCOc2c(C)cc(-c3ccc([N+](=O)[O-])cc3)cc2C)on1', 'Human rhinovirus sp.', 'µM', 0.76);

(P) Cc1cc(CCCOc2c(C)cc(-c3cccc(CO)c3)cc2C)on1
(Q) Cc1ccc(-c2cc(C)c(OCCCc3cc(C)no3)c(C)c2)cc1
IN: Decide: P or Q , by lowest recorded MIC50. Answer = label.
OUT: Q
(Q: 0.12 µM, P: 0.23 µM)
